experiment: Pharmacokinetics of ginsenosides after single oral RGE after amoxicillin with or without repeated LAB treatment; conditions: male, ICR, mouse, plasma, po, 2 g/kg, Tmax, Amoxicillin 3 days then water 7 days; single oral RGE 2 g/kg
observation_type: Tmax (h)
Write it as a number; the unit h goes unstated.

QUERY: GET /values?readout=Tmax&item= CC(C)=CCC[C@](C)(O[C@@H]1O[C@H](CO[C@@H]2O[C@H](CO)[C@@H](O)[C@H](O)[C@H]2O)[C@@H](O)[C@H](O)[C@H]1O)[C@H]1CC[C@]2(C)[C@@H]1[C@H](O)C[C@@H]1[C@@]3(C)CC[C@H](O[C@@H]4O[C@H](CO)[C@@H](O)[C@H](O)[C@H]4O[C@@H]4O[C@H](CO)[C@@H](O)[C@H](O)[C@H]4O)C(C)(C)[C@@H]3CC[C@]12C [GRb1, 20(S)-ginsenosides Rb1]
RESULT: 3.3

---

experiment: Pharmacokinetics of ginsenosides after single oral RGE after amoxicillin with or without repeated LAB treatment; settings: male, ICR, mouse, plasma, po, 2 g/kg, MRT, Amoxicillin 3 days then water 7 days; single oral RGE 2 g/kg
observation_type: MRT (h)
All answers are understood in h, so give the number only.

QUERY: # get_value(readout='MRT', item= CC(C)=CCC[C@](C)(O[C@@H]1O[C@H](CO[C@@H]2O[C@H](CO)[C@@H](O)[C@H](O)[C@H]2O)[C@@H](O)[C@H](O)[C@H]1O)[C@H]1CC[C@]2(C)[C@@H]1[C@H](O)C[C@@H]1[C@@]3(C)CC[C@H](O[C@@H]4O[C@H](CO)[C@@H](O)[C@H](O)[C@H]4O[C@@H]4O[C@H](CO)[C@@H](O)[C@H](O)[C@H]4O)C(C)(C)[C@@H]3CC[C@]12C [GRb1, 20(S)-ginsenosides Rb1] )
RESULT: 18.6

---

assay: Pharmacokinetics of ginsenosides after single oral RGE after amoxicillin with or without repeated LAB treatment; conditions: Amoxicillin + LAB; single oral RGE 2 g/kg
Exercise: for every item that follows, state its recorded Tmax.
Write it as a number; the unit h goes unstated.

QUERY: Give its Tmax value. Item: CC(C)=CCC[C@](C)(O[C@@H]1O[C@H](CO[C@@H]2O[C@@H](CO)[C@H](O)[C@H]2O)[C@@H](O)[C@H](O)[C@H]1O)[C@H]1CC[C@]2(C)[C@@H]1[C@H](O)C[C@@H]1[C@@]3(C)CC[C@H](O[C@@H]4O[C@H](CO)[C@@H](O)[C@H](O)[C@H]4O[C@@H]4O[C@H](CO)[C@@H](O)[C@H](O)[C@H]4O)C(C)(C)[C@@H]3CC[C@]12C
RESULT: 8.0

QUERY: Then this compound: CC(C)=CCC[C@](C)(O[C@@H]1O[C@H](CO)[C@@H](O)[C@H](O)[C@H]1O)[C@H]1CC[C@]2(C)[C@@H]1[C@H](O)C[C@@H]1[C@@]3(C)CC[C@H](O)C(C)(C)[C@@H]3CC[C@]12C [CK, 20(S)-compound K]
RESULT: 8.0

QUERY: Similarly, CC(C)=CCC[C@](C)(O[C@@H]1O[C@H](CO)[C@@H](O)[C@H](O)[C@H]1O)[C@H]1CC[C@]2(C)[C@@H]1[C@H](O)C[C@@H]1[C@@]3(C)CC[C@H](O[C@@H]4O[C@H](CO)[C@@H](O)[C@H](O)[C@H]4O[C@@H]4O[C@H](CO)[C@@H](O)[C@H](O)[C@H]4O)C(C)(C)[C@@H]3CC[C@]12C ?
RESULT: 16.0

QUERY: Moving on to the next compound: CC(C)=CCC[C@](C)(O[C@@H]1O[C@H](CO[C@@H]2OC[C@H](O)[C@H](O)[C@H]2O)[C@@H](O)[C@H](O)[C@H]1O)[C@H]1CC[C@]2(C)[C@@H]1[C@H](O)C[C@@H]1[C@@]3(C)CC[C@H](O[C@@H]4O[C@H](CO)[C@@H](O)[C@H](O)[C@H]4O[C@@H]4O[C@H](CO)[C@@H](O)[C@H](O)[C@H]4O)C(C)(C)[C@@H]3CC[C@]12C
RESULT: 8.0

QUERY: How about this compound: CC(C)=CCC[C@](C)(O)[C@H]1CC[C@]2(C)[C@@H]1[C@H](O)C[C@@H]1[C@@]3(C)CC[C@H](O[C@@H]4O[C@H](CO)[C@@H](O)[C@H](O)[C@H]4O[C@@H]4O[C@H](CO)[C@@H](O)[C@H](O)[C@H]4O)C(C)(C)[C@@H]3CC[C@]12C
RESULT: 2.5
